Just for reference, patent US20150299219A1 is where these values come from.

# method notes: Compound stability in human liver microsomes
# Type: in vitro ADME
# test context: pH 7.4, in vivo CLint extrapolated
Give CLint scaled for every item shown.
Respond with the bare value in mL/min/kg.

input: Please report the recorded CLint scaled for O=C(Nc1ccc(Oc2ccnc(NC(=O)C3CC3)c2)cc1)c1c2n(n(-c3ccccc3)c1=O)CCC2 .
output: 7.13

input: Please report the recorded CLint scaled for Nc1cc(Oc2ccc(NC(=O)c3c4n(n(-c5ccccc5)c3=O)CCC4)cc2)ccn1 .
output: 9.27

input: Please report the recorded CLint scaled for O=C(Nc1ccc(Oc2ccnc(NC(=O)C3CC3)c2)cn1)c1c2n(n(-c3ccccc3)c1=O)CCC2 .
output: 3.42

input: Please report the recorded CLint scaled for CC(=O)Nc1cc(Oc2ccc(NC(=O)c3c4n(n(-c5ccccc5)c3=O)CCC4)cc2)ccn1 .
output: 0.9

* * *

# method notes: Compound stability in rat liver microsomes
# Type: in vitro ADME
# test context: pH 7.4, in vivo CLint extrapolated
property: CLint scaled (mL/min/kg)
Respond with the bare value in mL/min/kg.

input: Please report the recorded CLint scaled for O=C(Nc1ccc(Oc2ccnc(NC(=O)C3CC3)c2)cc1)c1c2n(n(-c3ccccc3)c1=O)CCOC2 [Ex. 19] .
output: 14.4

input: Please report the recorded CLint scaled for O=C(Nc1ccc(Oc2ccnc(NC(=O)C3CC3)c2)cc1)c1c2n(n(-c3ccccc3)c1=O)CCC2 [Ex. 2] .
output: 13

input: Please report the recorded CLint scaled for O=C(Nc1ccc(Oc2ccnc(NC(=O)C3CC3)c2)cn1)c1c2n(n(-c3ccccc3)c1=O)CCC2 [Ex. 14] .
output: 12.5
